Sourced from the supplement of paper PMC11061612

combination Emax: recorded values
Test system: COR-L105 (Lung Adenocarcinoma)
Experiment: combination Emax (second highest fraction inhibited in the dose matrix, 72 h); higher = more inhibition; extreme values may be limits of the assay
metric name: combination Emax

[[record]]
molecule = "Cc1c2c(nn1C)CSCc1cc(n(C)n1)CSc1cc(c3ccccc3c1)OCCCc1c(C(=O)O)n(C)c3c-2c(Cl)ccc13 [AZD5991] + Nc1ccn([C@@H]2O[C@H](CO)[C@@H](O)C2(F)F)c(=O)n1 [Gemcitabine] (first compound max 1 µM, 7x7, partner max 0.3 µM)"
observed_result = 0.377

[[record]]
molecule = "CCc1c2c(nc3ccc(O)cc13)-c1cc3c(c(=O)n1C2)COC(=O)[C@]3(O)CC [SN-38] + CN(C)CCCOc1ccc(-c2ccc3ncc4c(c3c2)n(C2CCOCC2)c(=O)n4C)cn1 [AZD0156] (first compound max 0.3 µM, 7x7, partner max 1 µM)"
observed_result = 0.536

[[record]]
molecule = "NC1(C(=O)N[C@@H](CCO)c2ccc(Cl)cc2)CCN(c2ncnc3[nH]ccc23)CC1 [Capivasertib] + C[C@@H]1COCCN1C2=NC(=NC(=C2)C3(CC3)[S@](=N)(=O)C)C4=C5C=CNC5=NC=C4 [AZD6738] (first compound max 10 µM, 7x7, partner max 10 µM)"
observed_result = 0.501

[[record]]
molecule = "C[C@@H](Oc1cc(-c2cnn(C3CCNCC3)c2)cnc1N)c1c(Cl)ccc(F)c1Cl [Crizotinib] + CC1=C(C(=CC=C1)Cl)NC(=O)C2=CN=C(S2)NC3=CC(=NC(=N3)C)N4CCN(CC4)CCO [Dasatinib] (first compound max 10 µM, 7x7, partner max 2 µM)"
observed_result = 0.481

